Test system: HCT-15 colon
Assay: NCI-60 one-dose screen, 48 h
Conditions: 10 µM unless noted
Compounds without any hit were thinned out: in the full panel of roughly 83,000, 20% have a hit. Calls of active or inactive are those of the source. The calls were made as follows: active = growth percent below 10; inactive = the rest.
Lab note: assign the record to one of 1 = active, 0 = inactive

Q. How was Clc1ccc(Cc2nnc3sc(-c4cccnc4)nn23)cc1 classified in this test?
A. 0

Q. How was CO/N=C1\CCc2c(sc(NC(=O)c3cccc(C(F)(F)F)c3)c2C(N)=O)C1 classified in this test?
A. 0

Q. How was CCOC(=O)c1csc(NC(=O)CSc2nc3sc4c(c3c(=O)n2-c2ccc(Cl)cc2)CCCC4)n1 classified in this test?
A. 0

Q. How was CCOC(=O)c1c(Nc2ccccc2)nn2c(N)c(C#N)c(-c3ccc(F)cc3)nc12 classified in this test?
A. 0

Q. How was N/C(=N\c1nc2c(Br)cccc2s1)C(Br)Br classified in this test?
A. 1

Q. How was O=C(N/N=C/c1ccc[nH]1)c1[nH]c2ccc(Br)cc2c1-c1ccccc1 classified in this test?
A. 1

Q. How was CSCCC(C(=O)O)N1C(=O)/C(=C/c2ccc(O)c(O)c2)SC1=S (configuration not stated) classified in this test?
A. 0

Q. How was COC(=O)C(Cc1ccccc1)NS(=O)(=O)/N=C1\NC(=O)NC1=C(Cl)Cl (configuration not stated) classified in this test?
A. 0

Q. How was Nc1nc(N)c2c(n1)NC(c1ccc(C(F)(F)F)cc1)CC(c1ccc(Nc3nc(NCCO)nc(Nc4ccc(Cl)cc4)n3)cc1)=N2 (configuration not stated) classified in this test?
A. 1

Q. How was CCCCN1C(=O)/C(=c2\sc3n(c2=O)C2C(NN=3)N(CC)C(=O)N2CC)c2cc(Cl)ccc21 (configuration not stated) classified in this test?
A. 0

Q. How was COc1cc2cc(Oc3ccc(NC(=O)c4cccc(C(F)(F)F)c4)cc3)c(C)nc2cc1OCCN1CCCCC1 classified in this test?
A. 1

Q. How was C#Cc1nc(C2=C(C)/C(=N/OCc3ccccc3)CC2)cs1 classified in this test?
A. 0

Q. How was N#Cc1c(-c2ccc(Cl)cc2)nc(SCc2ccc(F)cc2)nc1N1CCNCC1 classified in this test?
A. 1

Q. How was CN(C)CCCOc1c2ccc(Cl)cc2nc2c1oc1ccc(Cl)cc12 classified in this test?
A. 1

Q. How was CCOC(=O)c1c(Nc2ccccc2)nn2c(-c3ccco3)c(C#N)cnc12 classified in this test?
A. 0

Q. How was COc1ccc(C(=O)/C=C/c2ccc(Oc3nc(NCCO)nc(N4CCOCC4)n3)c(OC)c2)cc1 classified in this test?
A. 0

Q. How was O=C(N/N=C/c1cccs1)c1[nH]c2ccc(Br)cc2c1-c1ccccc1 classified in this test?
A. 1

* * *

Tested on: OVCAR-5 ovarian
Test: NCI-60 one-dose screen, 48 h
Conditions: 10 µM unless noted
This is part of a sample that, as a whole, favours compounds with a hit. Of some 83,000 tested, about 20% had one in any assay. Active and inactive are the calls of the source. How the source made its calls: active means growth percent below 10; inactive means the rest.
Lab note: assign the record to one of active, inactive

Q. How was N[C@@H](Cc1cn(-c2c3ccccc3nc3ccccc23)nn1)C(=O)O classified in this test?
A. inactive

Q. How was COc1ccc(N/N=C/c2c(-c3ccc(S(C)(=O)=O)cc3)nc3ccccn23)cc1 classified in this test?
A. inactive

Q. How was CCN1CCN(S(=O)(=O)c2oc(-c3ccc(Cl)cc3)nc2C#N)CC1 classified in this test?
A. inactive

Q. How was CC(C)(C)Nc1nc2c(OCCc3ccccc3)cccn2c1-c1ccccc1Cl classified in this test?
A. inactive

Q. How was COc1ccc(C(=O)c2cc(C(=O)/C=C/c3c(Cl)cccc3Cl)c3cc(C)ccn23)cc1 classified in this test?
A. inactive

Q. How was OC1CCN(CCCOc2c3ccccc3nc3c2oc2ccccc23)CC1 classified in this test?
A. active

Q. How was Nc1c(C(=O)Nc2ccc(C(F)(F)F)cc2)sc2nc(-c3cnccn3)cc(-c3cccs3)c12 classified in this test?
A. inactive

Q. How was NC(=O)c1cc(-c2ccc3ncnc(N4CCc5cc(F)c(Cl)cc54)c3c2)cnc1N classified in this test?
A. inactive

Q. How was NS(=O)(=O)c1cccc(Nc2nc(SCC(=O)c3ccc([N+](=O)[O-])cc3)nc3ccccc23)c1 classified in this test?
A. inactive

Q. How was C=CCSc1ccc2c(c1)C(N1CCNCC1)=Nc1ccccc1O2 classified in this test?
A. inactive

* * *

For each record, write down the corresponding growth.
System: HCT-116 colon
Experiment: NCI-60 one-dose screen, 48 h (100 = growth as untreated, 0 = no growth, -100 = all killed)
Details: 10 µM unless noted
Protocol: Growth inhibition of the HCT-116 human tumor cell line is measured as a screen for anti-cancer activity. Cells are grown in 96 well plates and exposed to the test compound for 48 hours. Compounds are tested at a single concentration, which is 10^-5 M for most compounds. The reported endpoint is percent growth (GI% or GIPRCNT), where numbers from 0 - 100% represent growth inhibition, and numbers from -100% - 0 represent cell death. For example, a value of 40 represents 60% growth inhibition. […]
About 83,000 compounds went through this panel and 20% of them were active in at least one assay; those are over-represented in the sample as a whole. Activity calls are given as the source filed them. The calls were made as follows: active = growth percent below 10; inactive = the rest.

Q. Give growth for the following compound: O=C1NC(=C(Cl)Cl)/C(=N/S(=O)(=O)N2CCCCC2CC2(C(F)(F)F)N=N2)N1 (stereo unspecified)
A. -28.8% (active)

Q. Give growth for the following compound: C#Cc1nc(C2=C(C)C(OC(=O)CCC(=O)O)CC2)cs1 (stereo unspecified)
A. 114% (inactive)

Q. Give growth for the following compound: O=C1C2=C(C(=O)c3c(O)cccc31)C(c1ccco1)c1sc(=O)[nH]c1S2 (stereo unspecified)
A. -2.88% (active)

Q. Give growth for the following compound: Cc1c(Nc2nnc(SCC(=O)Nc3sc4c(c3C#N)CCCC4)s2)c(=O)n(-c2ccccc2)n1C
A. 102% (inactive)

Q. Give growth for the following compound: Cc1nc(-c2cc3ccccc3oc2=O)ccc1C(=O)/C=C/c1ccccn1
A. -21% (active)

Q. Give growth for the following compound: OC1CCN(CCCOc2c3ccccc3nc3c2oc2ccccc23)CC1
A. 3.79% (active)

Q. Give growth for the following compound: O=C1Nc2ccc(Cl)cc2/C1=C/c1ccc(OCC(=O)c2ccc(Br)cc2)cc1
A. 95.5% (inactive)

Q. Give growth for the following compound: COc1cc(/C=C/C(=O)c2ccc(C)cc2)ccc1Oc1nc(NCCO)nc(N2CCOCC2)n1
A. -77.2% (active)

Q. Give growth for the following compound: c1ccc2c(NCCCN3CCOCC3)c3oc4ccccc4c3nc2c1
A. -20.1% (active)

Q. Give growth for the following compound: N#Cc1c(-c2ccc(Cl)cc2)nc2c(-c3ccccc3)c(Nc3ccccc3)nn2c1N
A. 20.7% (inactive)

Q. Give growth for the following compound: COc1cc(/C=C/C(=O)c2cc(OC)c(OC)c(OC)c2)ccc1OCc1ccccc1
A. 6.71% (active)

Q. Give growth for the following compound: CCN1CCN(S(=O)(=O)c2oc(-c3ccc(Cl)cc3)nc2C#N)CC1
A. 11.6% (inactive)

Q. Give growth for the following compound: CCCCCCNC(=O)Oc1ccc(/C(=C(/C)c2ccccc2)c2ccc(OCCN3CCCCCC3)cc2)cc1
A. 23.8% (inactive)

Q. Give growth for the following compound: Clc1ccc2oc3c(OCCCn4ccnc4)c4ccccc4nc3c2c1
A. 28.9% (inactive)

Q. Give growth for the following compound: COC(=O)C(Cc1ccccc1)NS(=O)(=O)/N=C1\NC(=O)NC1=C(Cl)Cl (stereo unspecified)
A. 77.3% (inactive)

Q. Give growth for the following compound: COc1ccc(Cc2nn(CC(=O)N/N=C/c3ccc(Cl)cc3)c(=O)c3c(C)noc23)cc1
A. 36.4% (inactive)

Q. Give growth for the following compound: C#Cc1nc(C2=C(C)C(OC(C)=O)/C(=N/OC(C)=O)C2)cs1 (stereo unspecified)
A. 19.9% (inactive)

Q. Give growth for the following compound: COc1ccc(/C=N/NC(=O)c2[nH]c3ccc(Br)cc3c2-c2ccccc2)s1
A. -19.9% (active)

Q. Give growth for the following compound: CCOC(=O)c1csc(NC(=O)CSc2nc3sc4c(c3c(=O)n2-c2ccc(Cl)cc2)CCCC4)n1
A. 105% (inactive)

Q. Give growth for the following compound: CN(C)CCCNc1c2ccc(Cl)cc2nc2c1oc1ccc(Cl)cc12
A. -93.7% (active)

Q. Give growth for the following compound: Nc1cc(-c2c[nH]c3ccc(F)cc23)nc2cc(-c3c[nH]c4ccc(F)cc34)nn12
A. 31.9% (inactive)

Q. Give growth for the following compound: c1ccc(CNc2ncnc3ccc(-c4cnc5[nH]ncc5c4)cc23)cc1
A. 80.1% (inactive)

Q. Give growth for the following compound: CN(C)c1ccc(/C=C2\Cc3c(F)ccc(Br)c3C2=O)cc1
A. 98.5% (inactive)

Q. Give growth for the following compound: Clc1ccc2c(NCCCn3ccnc3)c3oc4ccccc4c3nc2c1
A. 14% (inactive)

Q. Give growth for the following compound: COC1CCN(Cc2ccc3c(NNC(=O)c4cnccn4)nc4cc(F)ccc4n23)C1 (stereo unspecified)
A. 4.53% (active)

Q. Give growth for the following compound: COc1ccc(C(=O)/C=C/c2ccc(OCc3ccc(Cl)cc3)c(OC)c2)cc1OC
A. 20.8% (inactive)

Source: PubChem BioAssay (NCI)
